EC50 by entry:
- protocolSummary: Luminescence Cell-Based Dose Confirmation HTS to Identify Activators of 5'UTR Stem-Loop Driven Alpha-Synuclein mRNA Translation in H4 Neuroglioblastoma Cells. [Related pubchem assays: 1829 (Project Summary), 1814 (Primary HTS)]
- Assay type: functional
Calls of active or inactive are those of the source.

N=C(CS(=O)(=O)c1ccccn1)NOC(=O)c1ccccc1Cl: 0.17 µM (active)
CCc1ccc(N2NC(=O)/C(=C/C=C/c3ccco3)C2=O)cc1: 14.8 µM (active)
O=C(NNC(=S)Nc1ccccc1)c1cccs1: 11.2 µM (active)

input: Which EC50 is listed for O=C(NCCC1=CCCCC1)c1cnccn1 ?
output: 8.37 µM (active)

* * *

- protocolSummary: Luminescence Cell-Based Dose Response HTS to Identify Activators of Luciferase Translation or Activity in H4 […] Cells. [Related pubchem assays: 1829 (Project Summary), 1814 (Primary HTS)]
- Type: functional
Active and inactive are the calls of the source.
quantity: EC50

CCc1ccc(N2NC(=O)/C(=C/C=C/c3ccco3)C2=O)cc1: 48 µM (active)

input: Which EC50 is listed for Nn1c(SCc2ccccc2F)nnc1-c1cccnc1 ?
output: 36.8 µM (active)

input: Which EC50 is listed for Cc1nc2cc(NC(=O)N3CCC(c4ccccc4)C3)ccc2n1C (stereo unspecified) ?
output: 17.7 µM (active)

input: Which EC50 is listed for c1ccc(-c2cc3n(c2)CCc2ccccc2-3)cc1 ?
output: 15.9 µM (active)

input: Which EC50 is listed for COC(=O)CSc1nc(-c2cccs2)ccc1C#N ?
output: < 0.1 µM (active)

input: Which EC50 is listed for O=C(COC(=O)CC1CCCC1)Nc1cc2c(cc1Cl)C(=O)c1ccccc1C2=O ?
output: < 0.1 µM (inconclusive)

* * *

- testedTarget: Sentrin-specific protease 7 (Homo sapiens);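 further: Luminescence-based dose-response confirmation of ultra-high-throughput screening hits, measuring inhibition of SENP7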
- Sequence (Q9BQF6 whole entry): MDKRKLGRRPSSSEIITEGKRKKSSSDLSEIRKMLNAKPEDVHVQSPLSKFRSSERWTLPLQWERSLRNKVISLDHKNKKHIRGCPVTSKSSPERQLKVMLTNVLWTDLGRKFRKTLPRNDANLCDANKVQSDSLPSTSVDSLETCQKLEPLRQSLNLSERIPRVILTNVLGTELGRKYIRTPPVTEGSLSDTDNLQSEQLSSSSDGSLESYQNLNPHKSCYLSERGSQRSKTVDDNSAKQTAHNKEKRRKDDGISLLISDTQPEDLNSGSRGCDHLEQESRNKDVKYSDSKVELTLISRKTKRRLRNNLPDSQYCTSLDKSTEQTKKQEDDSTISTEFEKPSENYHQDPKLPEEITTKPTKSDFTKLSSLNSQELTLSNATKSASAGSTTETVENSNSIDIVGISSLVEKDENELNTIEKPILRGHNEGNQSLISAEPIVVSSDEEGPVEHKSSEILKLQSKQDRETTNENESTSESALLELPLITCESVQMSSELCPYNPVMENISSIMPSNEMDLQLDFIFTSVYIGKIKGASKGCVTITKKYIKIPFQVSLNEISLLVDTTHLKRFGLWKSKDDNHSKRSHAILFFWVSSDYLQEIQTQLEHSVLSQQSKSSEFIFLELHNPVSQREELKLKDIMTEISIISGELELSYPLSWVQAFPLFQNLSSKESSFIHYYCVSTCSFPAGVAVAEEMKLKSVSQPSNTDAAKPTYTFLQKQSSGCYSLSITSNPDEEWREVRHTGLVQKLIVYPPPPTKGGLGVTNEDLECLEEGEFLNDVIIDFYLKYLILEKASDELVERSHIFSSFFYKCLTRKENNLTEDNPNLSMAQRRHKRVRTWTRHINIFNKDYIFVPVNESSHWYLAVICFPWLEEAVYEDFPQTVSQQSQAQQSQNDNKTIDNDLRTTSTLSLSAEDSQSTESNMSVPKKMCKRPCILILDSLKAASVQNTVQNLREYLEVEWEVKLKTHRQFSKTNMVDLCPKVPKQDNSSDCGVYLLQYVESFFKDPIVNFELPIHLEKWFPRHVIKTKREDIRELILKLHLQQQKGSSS
- Format: functional
Activity calls are given as the source filed them.
IC50 by entry:

C=COC(=O)CSc1nc(-c2cccs2)ccc1C#N: 16.4 µM (active)

// switching to the query compound
input: Which IC50 is listed for O=C(Nc1cccc(Cl)c1)N1CCc2ccccc2C1 ?
output: 7.31 µM (active)

* * *

- testedTarget: Protein skinhead-1 (Caenorhabditis elegans)
- Sequence (P34707 whole entry): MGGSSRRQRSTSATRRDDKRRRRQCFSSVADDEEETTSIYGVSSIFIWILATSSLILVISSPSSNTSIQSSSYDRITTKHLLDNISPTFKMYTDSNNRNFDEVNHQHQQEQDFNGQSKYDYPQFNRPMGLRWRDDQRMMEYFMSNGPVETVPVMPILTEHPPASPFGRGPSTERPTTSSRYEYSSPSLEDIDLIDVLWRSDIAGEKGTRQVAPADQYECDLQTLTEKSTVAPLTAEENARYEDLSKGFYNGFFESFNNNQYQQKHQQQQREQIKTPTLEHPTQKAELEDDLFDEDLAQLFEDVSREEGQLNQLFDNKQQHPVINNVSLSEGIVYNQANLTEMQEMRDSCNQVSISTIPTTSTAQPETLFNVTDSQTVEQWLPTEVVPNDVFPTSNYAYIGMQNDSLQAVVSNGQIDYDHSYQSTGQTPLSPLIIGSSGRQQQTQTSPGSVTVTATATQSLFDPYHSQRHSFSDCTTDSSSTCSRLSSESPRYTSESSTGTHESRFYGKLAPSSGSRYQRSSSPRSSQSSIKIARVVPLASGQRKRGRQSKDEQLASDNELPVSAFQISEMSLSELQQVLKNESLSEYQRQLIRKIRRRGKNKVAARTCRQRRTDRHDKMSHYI
- Format: functional
The source made the active and inactive calls.
Please state which outcome applies, choosing from active, inactive

CC(C)OC(=O)CN1CCN(C2c3ccccc3-c3ccccc32)CC1: inactive
Clc1ccc(OCc2nc(-c3ccncc3)no2)c(Br)c1: active
CN(C(=O)CSCC(=O)Nc1ccc(Cl)cc1)C1CCCCC1: inactive
Cc1c(OC(=O)CNC(=O)OC(C)(C)C)ccc2c3c(c(=O)oc12)CCC3: inactive
COc1ccc(/C=C2\SC(=O)N(CC(=O)Nc3ccccc3O)C2=O)cc1OC: inactive

Next up:
input: Field: outcome | Entry: CC(C)c1ccc(N(CC(=O)Nc2ccc(S(=O)(=O)N3CCOCC3)cc2)S(C)(=O)=O)cc1
output: inactive

* * *

- System: Streptococcus sp. 'group A'
- protocolSummary: growth inhibition of control SK(-) GAS strain, dose response, counter-screen for streptokinase expression inhibitor project, luminescence, kanamycin, BacTiterGlo, confirmation (AID 1900)
- Assay type: functional, organism-based
Activity calls are given as the source filed them.
quantity: EC50

COc1cc(-c2c(C#N)c(N)nc3c2c(C)nn3-c2ccc(C)c(C)c2)cc(OC)c1OC: 5690 nM (active)
COc1ccc(Br)cc1[C@H]1[C@@H]2C=CCC[C@@]2(C)C(=O)N1Cc1ccccc1: 7120 nM (active)
CCCCCCCn1c(NC(=O)CC)nc2ccccc21: 2130 nM (active)
CC(/C=C1\SC(=S)N(CCCC(=O)Nc2ccc(C(=O)O)cc2)C1=O)=C\c1ccccc1: 274 nM (active)

input: Which EC50 is listed for O=C(COC(=O)Cc1cn2ccsc2n1)Nc1nc2ccccc2s1 ?
output: 2640 nM (active)
